Test system: Candida albicans
test.description: Antifungal activity against itraconazole/fluconazole susceptible Candida albicans ATCC MYA-2310 assessed as fungal growth inhibition by double dilution method
Format: functional
Reported MIC by item:
State just the number; it will be interpreted in µg/mL.

> print(dat)
                   compound.smiles       system.name  unit.abbrev  experimental.result
1  COc1cccc(NNC(=O)c2ccc(Br)cn2)c1  Candida albicans        µg/mL                  3.9
2      O=C(NNc1cccc(Cl)c1)c1ccccn1  Candida albicans        µg/mL                 0.98
3  COc1ccc(NNC(=O)c2ncc(F)cc2F)cc1  Candida albicans        µg/mL                 1.95
4   O=C(NNc1cccc(F)c1)c1ccc(Br)cn1  Candida albicans        µg/mL                  3.9
5       O=C(NNc1ccc(F)cc1)c1ccccn1  Candida albicans        µg/mL                 1.95

Req: Endpoint output: MIC of "COc1cccc(NNC(=O)c2cccc(F)n2)c1" . Value?
Resp: 1.95

====

Tested on: Aspergillus terreus
test.description: Antifungal activity against Aspergillus terreus ATCC MYA-3633 assessed as fungal growth inhibition by double dilution method
Assay type: functional
value.type: MIC (µg/mL)
State just the number; it will be interpreted in µg/mL.

compound.smiles	system.name	experimental.result
O=C(NNc1ccc(F)cc1)c1nc(F)ccc1F	Aspergillus terreus	1.95

Kindly consider the entry below.
Req: Endpoint output: MIC of "C[C@@H]1[C@H](O)[C@@H](C)/C=C/C=C/C=C/C=C/C=C/C=C/C=C/[C@H](O[C@@H]2O[C@H](C)[C@@H](O)[C@H](N)[C@@H]2O)C[C@@H]2O[C@](O)(C[C@@H](O)C[C@@H](O)[C@H](O)CC[C@@H](O)C[C@@H](O)CC(=O)O[C@H]1C)C[C@H](O)[C@H]2C(=O)O" . Value?
Resp: 3.9

====

Test system: Nakaseomyces glabratus
test.description: Antifungal activity against Candida glabrata ATCC 2001 assessed as fungal growth inhibition by double dilution method
Format: functional
value.type: MIC (µg/mL)
State just the number; it will be interpreted in µg/mL.

Solved cases below.
compound.smiles	MIC, µg/mL
COc1ccc(NNC(=O)c2cnccn2)cc1	0.98
O=C(NNc1ccc(Cl)cc1)c1ccccn1	1.95
O=C(NNc1ccc(F)cc1)c1cccc(F)n1	15.6

Req: Endpoint output: MIC of "COc1cccc(NNC(=O)c2cccc(F)n2)c1" . Value?
Resp: 15.6

Req: Endpoint output: MIC of "O=C(NNc1cccc(Cl)c1)c1cnccn1" . Value?
Resp: 3.9

Req: Endpoint output: MIC of "O=C(NNc1cccc(F)c1)c1ccccn1" . Value?
Resp: 1.95

Req: Endpoint output: MIC of "COc1ccc(NNC(=O)c2nc(F)ccc2F)cc1" . Value?
Resp: 7.8

Req: Endpoint output: MIC of "O=C(NNc1cc(F)cc(F)c1)c1ccccn1" . Value?
Resp: 7.8

Req: Endpoint output: MIC of "COc1ccc(NNC(=O)c2ccccn2)cc1" . Value?
Resp: 0.98

Req: Endpoint output: MIC of "O=C(NNc1ccc(F)cc1)c1nc(F)ccc1F" . Value?
Resp: 15.6

====

Test system: [Candida] auris
test.description: Antifungal activity against Candida auris AR Bank # 383 assessed as fungal growth inhibition by double dilution method
Format: functional
conditions.used: Candidozyma auris
value.type: MIC

Solved cases below.
> print(dat)
               compound.smiles  value.type  experimental.result
1  COc1ccc(NNC(=O)c2ccccn2)cc1         MIC           1.95 µg/mL
2  COc1cccc(NNC(=O)c2ccccn2)c1         MIC           0.98 µg/mL
3  COc1ccc(NNC(=O)c2cnccn2)cc1         MIC           0.98 µg/mL
4  O=C(NNc1ccc(Cl)cc1)c1cnccn1         MIC            3.9 µg/mL
5   O=C(NNc1ccc(F)cc1)c1ccccn1         MIC           1.95 µg/mL

Kindly consider the entry below.
Req: Endpoint output: MIC of "O=C(NNc1cc(F)ccc1F)c1ccccn1" . Value?
Resp: 0.49 µg/mL

====

Tested on: Aspergillus terreus
test.description: Antifungal activity against Aspergillus terreus ATCC MYA-3633 assessed as fungal growth inhibition by double dilution method
Format: functional
value.type: MIC (µg/mL)
State just the number; it will be interpreted in µg/mL.

> print(dat)
                   compound.smiles  experimental.result
1   O=C(NNc1ccc(F)cc1)c1ncc(F)cc1F                  3.9
2      O=C(NNc1ccc(F)cc1F)c1cnccn1                 0.98
3  COc1ccc(NNC(=O)c2ncc(F)cc2F)cc1                 31.3
4      COc1ccc(NNC(=O)c2ccccn2)cc1                 31.3
5       O=C(NNc1cccc(F)c1)c1cnccn1                 0.98
6      O=C(NNc1ccc(Cl)cc1)c1ccccn1                  3.9

Kindly consider the entry below.
Req: Endpoint output: MIC of "O=C(NNc1cc(F)cc(F)c1)c1ccccn1" . Value?
Resp: 0.98

====

System: Candida duobushaemulonii
test.description: Antifungal activity against Candida duobushaemulonii AR Bank # 394 assessed as fungal growth inhibition by double dilution method
Type: functional
conditions.used: Candidozyma duobushaemuli
Rule: measured MIC below 1 µg/mL gets true (1); anything equal to or greater than 1 µg/mL gets false (0).

Observe how each entry below is paired with its result.
compound.smiles	assigned.class
O=C(NNc1cccc(Cl)c1)c1ccccn1	false (0)
O=C(NNc1ccc(F)cc1F)c1cnccn1	false (0)
O=C(NNc1cccc(F)c1)c1ccccn1	true (1)
O=C(NNc1cc(F)ccc1F)c1ccccn1	true (1)
O=C(NNc1cccc(Cl)c1)c1cnccn1	true (1)
COc1cccc(NNC(=O)c2cnccn2)c1	false (0)
COc1ccc(NNC(=O)c2cnccn2)cc1	true (1)

Req: Criterion: MIC strictly below 1 µg/mL. Is it met by "O=C(NNc1cc(F)cc(F)c1)c1ccccn1" ?
Resp: true (1)

====

Reported log10 of MIC by item:
Test system: Nakaseomyces glabratus
test.description: Antifungal activity against Candida glabrata ATCC 2001 assessed as fungal growth inhibition by double dilution method
Assay type: functional
Lab note - MIC converted to log10 from values in µg/mL.

> print(dat)
                  compound.smiles  experimental.result
1  COc1ccc(NNC(=O)c2cccc(F)n2)cc1                -0.01

Req: Endpoint output: log10 of MIC of "O=C(NNc1cccc(F)c1)c1ncc(F)cc1F" . Value?
Resp: 1.50

Req: Endpoint output: log10 of MIC of "COc1ccc(NNC(=O)c2ccc(F)cc2F)cc1" . Value?
Resp: 0.59

Req: Endpoint output: log10 of MIC of "O=C(NNc1cc(Cl)cc(Cl)c1)c1ccccn1" . Value?
Resp: 0.89

Req: Endpoint output: log10 of MIC of "COc1cccc(NNC(=O)c2ccc(Br)cn2)c1" . Value?
Resp: 0.59

Req: Endpoint output: log10 of MIC of "O=C(NNc1ccc(F)cc1)c1ncc(F)cc1F" . Value?
Resp: 1.19

====

System: Candida albicans
test.description: Antifungal activity against Candida albicans ATCC 64124 assessed as fungal growth inhibition by double dilution method
Assay type: functional
value.type: MIC

compound.smiles	MIC
COc1ccc(NNC(=O)c2cccc(F)n2)cc1	1.95 µg/mL

Kindly consider the entry below.
Req: Endpoint output: MIC of "O=C(NNc1cccc(F)c1)c1ccccn1" . Value?
Resp: 0.98 µg/mL

====

Reported MIC by item:
Tested on: Candida albicans
test.description: Antifungal activity against Candida albicans ATCC 64124 assessed as fungal growth inhibition by double dilution method
Assay type: functional
State just the number; it will be interpreted in mg/L.

Req: Endpoint output: MIC of "COc1cccc(NNC(=O)c2ccc(Br)cn2)c1" . Value?
Resp: 3.9

Req: Endpoint output: MIC of "O=C(NNc1cccc(F)c1)c1ccc(F)cc1F" . Value?
Resp: 1.95

Req: Endpoint output: MIC of "COc1cccc(NNC(=O)c2cnccn2)c1" . Value?
Resp: 0.98

Req: Endpoint output: MIC of "O=C(NNc1ccc(F)cc1F)c1cnccn1" . Value?
Resp: 0.98

Req: Endpoint output: MIC of "O=C(NNc1ccc(F)cc1)c1ccc(F)cc1F" . Value?
Resp: 7.8

Req: Endpoint output: MIC of "COc1ccc(NNC(=O)c2cnccn2)cc1" . Value?
Resp: 0.98

Req: Endpoint output: MIC of "O=C(NNc1ccc(F)cc1)c1ncc(F)cc1F" . Value?
Resp: 1.95

Req: Endpoint output: MIC of "COc1cccc(NNC(=O)c2cccc(Br)n2)c1" . Value?
Resp: 3.9
